Quick reference for inhibition among some molecules
Assay: yeast transport mutant growth inhibition pilot in 384-well plates, post-Golgi transport modulator project (AID 636)
Details: absorbance 615 nm, about 18 h, active compounds read high
Write down the numeric answer in % and omit the unit.

Solved entries (count: 4):
1) CCCCNC(=O)OC(C)CNC(=O)Oc1cccc(C)c1 (stereo not given)    -4.08
2) COC(=O)c1ccccc1NC(=O)c1noc2c1CC(C(C)(C)C)CC2 (stereo not given)    -1.17
3) CCCc1n[nH]c2c1/C(=N/O)CC(c1ccccc1)C2 (stereo not given)    -2.34
4) COC(=O)C(F)(F)Sc1c(C)[nH]c2ccccc12    -2.37

# input for lookup
Q: Which inhibition is reported for this molecule? `CCc1c(C(=O)Nc2cc(C)ccc2OC)[nH]c(C)c1C(C)=O`
A: -2.8

* * *

# maps each entry to its viability increase
Experiment: doxorubicin toxicity protection in MRP-1 cells – H69AR cells, CellTiter-Glo, duplicate, MRP-1 activator project, pilot screen (AID 807);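 note: compound pretreatment 18-22 h then 72 h combined with doxorubicin; 0% = doxorubicin alone and 100% = vehicle without doxorubicin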
Conditions: H69AR viability with doxorubicin, CellTiter-Glo luminescence; at 10 µM; active compounds read high
Answer in %, number only, no unit symbol.

Examples from the recorded data:
1) Clc1ccccc1-c1nnc2sc(-c3ccncc3)nn12    -3.61
2) Cc1ccc(-c2nn(-c3ccccc3)cc2C2SCC(=O)N2Cc2ccccc2)o1 (configuration not stated)    -0.06
3) COc1ccc(N(CC(=O)NCCSc2ccccn2)S(C)(=O)=O)cc1Cl    -3.81
4) O=C1c2ccccc2C(Nc2ccc(S(=O)(=O)N3CCOCC3)cc2)N1c1cccnc1 (configuration not stated)    -0.92
5) COc1ccc(C)cc1NC(=O)CSc1nnc(-c2ccccn2)n1Cc1ccco1    -2.4

Q: For the compound `CCOC(=O)c1ccc(NC(=O)c2ccc(C)c(S(=O)(=O)N3CCOCC3)c2)cc1` , what viability increase is on record?
A: -3.41

Q: Which viability increase reading was recorded for the compound Cc1cccc(N2CCN(C(=O)c3cc4c(=O)n(C)c5ccccc5c4n3C)CC2C)c1 (configuration not stated) ?
A: -4.81

Q: Need viability increase of `COc1cccc(NC(=O)c2ccc(S(=O)(=O)N3CCCCC3)cc2)c1` , thanks.
A: -1.52

Q: # lookup: viability increase of `COC(=O)CNc1c(-c2ccccn2)nc2ccc(Br)cn12`
A: -2.57

Q: Could you tell me which viability increase is on file for `COc1ccc(Nc2nc(N)nc(CN3CCC(Cc4ccccc4)CC3)n2)cc1` ?
A: -6.58

Q: Record request: viability increase value, item `Cc1cccc(N2CCN(C(=O)c3cc4c(C)nc5ccccc5c4o3)CC2)c1C`
A: 4.84

Q: Which measured viability increase value corresponds to `CCOC(=O)c1[nH]c(C)c(C(=O)N2CCOCC2)c1C` ?
A: -0.92

* * *

Experiment: viability of PTEN-null HCT116 cells – cell-based, HCT116 clonal line, CellTiter-Glo, pilot screen (AID 824);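 note: 0% = 20 µM Hyamine control and 100% = vehicle cell control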
Details: HCT116 PTEN-deleted viability, 60 h, at 10 µM, active compounds read low
Results filed as inconclusive are left out.
recorded_metric: viability (%)
Reply numerically in %, unit not repeated.

1) COC(=O)c1ccc2c(c1)N(Cc1ccccc1F)C(=O)c1ccccc1S2=O (configuration not stated)    74
2) O=C1c2ccccc2C(Nc2ccc(S(=O)(=O)N3CCOCC3)cc2)N1c1cccnc1 (configuration not stated)    97
3) c1ccc(CNc2ncnc3nc[nH]c23)nc1    96.3
4) CN(C)c1ccc(-c2noc(C3CCN(S(=O)(=O)c4cccc(Cl)c4)CC3)n2)cc1    94.2
5) COc1cc2c(cc1OC)C(c1ccccc1)N(C(=O)c1ccco1)CC2 (configuration not stated)    63.5

Q: Give its viability value. Item: Cc1ccccc1S(=O)(=O)Cc1ccc(C(=O)N2CC(C)CC(C)C2)o1 (configuration not stated)
A: 90.2

Q: # query: viability of entry `Cc1cccc(-c2noc(CN(C(=O)c3c(-c4ccccc4Cl)noc3C)C(C)C)n2)c1`
A: 49.4

Q: Report viability for `COc1cccc(NC(=O)c2ccc(S(=O)(=O)N3CCCCC3)cc2)c1` please.
A: 85.7

Q: I would be grateful if you could share the reported viability for CCOC(=O)c1ccccc1NC1c2ccccc2C(=O)N1c1ccc(C)cn1 (configuration not stated) .
A: 79.6

Q: Need viability, item `COc1cc(Cl)c(S(=O)(=O)N2CCN(Cc3ccc4c(c3)OCO4)CC2)cc1Cl`
A: 82.2

Q: What does the record list as viability for `C=CCNc1ncnc2c1cnn2-c1ccc(Cl)cc1` ?
A: 106

Q: Which viability value is on record for `Oc1ccccc1C(=S)N1CCCCC1` ?
A: 89.8
